molecular target: full-length beta-Catenin (Uniprot ID P35222) (Homo sapiens (Human)) (UniProt P35222); test: fluorescence polarization competition; 10 nM full-length beta-catenin, competitor 10 nM 5FAM-TCF4(10-53)
Sequence (P35222 whole entry): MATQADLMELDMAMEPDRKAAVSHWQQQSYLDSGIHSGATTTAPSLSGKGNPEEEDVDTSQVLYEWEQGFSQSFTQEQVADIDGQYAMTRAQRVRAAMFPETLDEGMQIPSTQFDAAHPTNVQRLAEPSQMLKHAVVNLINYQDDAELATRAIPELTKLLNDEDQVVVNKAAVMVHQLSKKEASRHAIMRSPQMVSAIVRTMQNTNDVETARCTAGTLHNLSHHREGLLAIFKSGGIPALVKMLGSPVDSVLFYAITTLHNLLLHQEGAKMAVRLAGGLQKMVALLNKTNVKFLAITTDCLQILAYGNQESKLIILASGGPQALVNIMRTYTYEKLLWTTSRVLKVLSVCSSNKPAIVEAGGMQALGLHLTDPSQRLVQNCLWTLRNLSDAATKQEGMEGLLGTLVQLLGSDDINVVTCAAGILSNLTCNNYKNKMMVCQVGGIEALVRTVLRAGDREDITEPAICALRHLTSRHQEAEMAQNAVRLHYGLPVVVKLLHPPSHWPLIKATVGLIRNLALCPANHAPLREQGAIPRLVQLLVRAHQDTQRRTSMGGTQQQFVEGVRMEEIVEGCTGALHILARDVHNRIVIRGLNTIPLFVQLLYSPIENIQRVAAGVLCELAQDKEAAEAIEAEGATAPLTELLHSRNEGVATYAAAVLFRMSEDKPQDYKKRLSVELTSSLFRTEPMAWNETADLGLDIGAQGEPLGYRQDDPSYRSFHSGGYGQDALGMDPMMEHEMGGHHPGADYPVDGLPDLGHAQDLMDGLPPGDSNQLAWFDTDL
Starred links: 1 amine or outer side, 2 acyl side, 3 side chain; linkers in the order of their positions; H or OH if unused. Positions of bridges follow the written chain, without caps; N, C: chain ends. Non-standard residues stand in square brackets, D forms with d. Primed or numbered codes have the meaning given here. PyrS2(3) = (S)-3-amino-1-((pent-4-en-1-yloxy)carbonyl)pyrrolidine-3-carboxylic acid, stapling residue, C=CCCCOC(=O)N1CC[C@@](N[*:1])(C(=O)[*:2])C1; B5(18) = 2,2-bis(4-pentenyl)glycine (2-amino-2-(pent-4-en-1-yl)hept-6-enoic acid), stitching residue, C=CCCCC(CCCC=C)(N[*:1])C(=O)[*:2]; PyrS2 = (S)-3-amino-1-((pent-4-en-1-yloxy)carbonyl)pyrrolidine-3-carboxylic acid, C=CCCCOC(=O)N1CC[C@@](N[*:1])(C(=O)[*:2])C1; MorphAsn = (S)-2-amino-4-morpholino-4-oxobutanoic acid, O=C(C[C@H](N[*:1])C(=O)[*:2])N1CCOCC1; B5 = 2-amino-2-(pent-4-en-1-yl)hept-6-enoic acid, C=CCCCC(CCCC=C)(N[*:1])C(=O)[*:2]; MeAsn = N4-methyl-L-asparagine, CNC(=O)C[C@H](N[*:1])C(=O)[*:2]; Phe(3-COOH) = N[C@@H](Cc1cccc(C(=O)O)c1)C(=O)O; Phe(2-Cl) = N[C@@H](Cc1ccccc1Cl)C(=O)O; Bta = N[C@@H](Cc1csc2ccccc12)C(=O)O; αAllylPro = C=CC[C@@]1(C(=O)O)CCCN1; tBuAla = CC(C)(C)C[C@H](N)C(=O)O; 3Thi = N[C@@H](Cc1ccsc1)C(=O)O; Cha = N[C@@H](CC1CCCCC1)C(=O)O; Aib = CC(C)(N)C(=O)O
readout name: IC50 (nM)

I = Ac-[αAllylPro]N[Cha][B5]DQTAFL[PyrS2]F[Bta][MorphAsn]-NH2 (staple 1-4, 4-11) [I-2503]
II = Ac-[αAllylPro]D[tBuAla][B5]NT[Aib]AF[MeAsn][PyrS2][3Thi][Bta]N-NH2 (staple 1-4, 4-11) [I-2497]
III = Ac-[αAllylPro]D[tBuAla][B5(18)]D[Phe(3-COOH)]AAFV[PyrS2(3)][Phe(2-Cl)][Bta]S-NH2 (staple 1-4, 4-11) [I-1850]
Put the binders in ascending order of IC50. Response format: the labels, sorted as the prompt asks. III, II, I
(III: 17 nM, II: 105 nM, I: 1310 nM)
